- target: Ribosomal protein S6 kinase beta-1 (Homo sapiens)
- settings: at 10 µM
Recorded residual activity, one value per entry.
Please report the result as a number followed by the unit.

Reference set (3 entries):
Which residual activity reading was recorded for the compound O=[N+]([O-])c1ccc(-c2nc(-c3ccc(F)cc3)c(-c3ccncc3)[nH]2)cc1 ?
62%

State the recorded residual activity for this entry: c1ccc(-c2n[nH]cc2-c2ccnc3ccccc23)nc1
58%

Entry under review: COc1cc2ncnc(Nc3ccc(O)c(Br)c3)c2cc1OC . Reported residual activity?
31%

---
Can you look up the measured residual activity of Oc1n[nH]c2nnc(-c3c(-c4ccccc4)nn4ccccc34)cc12 for me?
96%

Given the entry Cc1ccc(S(=O)(=O)/C=C/C#N)cc1 , report its measured residual activity.
102%
